- experiment-description: gradient 5% acetonitrile 3 min, to 50% in 2 min, to 85% in 15 min, held 3 min, 100 µL/min
- condition-parameters: column: Zorbax Extend-C18 2.1 x 50 mm; eluents: water / acetonitrile, 0.1% formic acid
endpoint: RP-LC retention time (s)

- molecule: "CCc1ccc(NC(=O)c2cccn2Cc2noc(C)n2)cc1"
  RP-LC retention time, s: 910

P. COc1ccc(C(=O)Nc2nc3c(s2)Cc2c(Br)ccc(OC)c2-3)cc1OC
Q. Cn1ccc2cc(S(=O)(=O)N3CCCC(C(=O)NCCN4CCCCC4)C3)ccc21 (stereo unspecified)
Problem: Parameter check: reported RP-LC retention time is higher for which label, P or Q ? Refer to your chosen item by its label in the answer.
Result: P
(P: 1100 s, Q: 654 s)

P. COc1ccc(-c2noc(C3CCCN3C(=O)COc3ccccc3)n2)cc1 (stereo unspecified)
Q. CCCNC(=O)C1CCCN(c2ccc(SCC(=O)Nc3ccc(OCC)cc3)nn2)C1 (stereo unspecified)
Problem: Among P and Q , which shows a numerically higher RP-LC retention time result? Lab log: write the label of the selected item as the result.
Result: P
(P: 936 s, Q: 595 s)

----------
- experiment-description: gradient 5% acetonitrile 3 min, to 50% in 2 min, to 85% in 15 min, held 3 min, 100 µL/min
- condition-parameters: column: Zorbax Extend-C18 2.1 x 50 mm; eluents: water / acetonitrile, 0.1% formic acid
endpoint: RP-LC retention time (s)

- molecule: "N#Cc1ccccc1NC(=O)NCC1CN(c2ccc3c(c2)OCO3)C(=O)O1 (stereo not given)"
  unit-tag: "s"
  RP-LC retention time: 690
- molecule: "CC1CCc2cc(F)cc3c(=O)c(C(=O)O)cn1c23 (stereo not given)"
  unit-tag: "s"
  RP-LC retention time: 806
- molecule: "Cc1ccccc1-c1cc(C(=O)N2CCC(NC(=O)C3CCCC3)CC2)[nH]n1"
  unit-tag: "s"
  RP-LC retention time: 712
- molecule: "Cc1cc(-c2nnc(C3CC3)o2)c(C)n1CC(=O)Nc1ccc(N2CCOCC2)cc1"
  unit-tag: "s"
  RP-LC retention time: 700
- molecule: "Cn1nc(C(=O)N2CCCC2)c2c1CCN(C(=O)CCC(=O)NC1CCCCCC1)C2"
  unit-tag: "s"
  RP-LC retention time: 696

----------
- experiment-description: gradient 5% acetonitrile 3 min, to 50% in 2 min, to 85% in 15 min, held 3 min, 100 µL/min
- condition-parameters: column: Zorbax Extend-C18 2.1 x 50 mm; eluents: water / acetonitrile, 0.1% formic acid
endpoint: RP-LC retention time (s)

Please review the entries below; each comes with its answer.
- compound: "COc1ccc(Cl)cc1NC(=O)Cn1c2c(c(=O)n(C3CCCCC3)c1=O)CCC2"
  unit-tag: "s"
  RP-LC retention time: 997
- compound: "CCc1nc(N)n(CC(=O)NCc2ccc(F)cc2F)c(=O)c1C"
  unit-tag: "s"
  RP-LC retention time: 632
- compound: "Cn1c(=O)c(C(=O)N2CCCC2)nc2ccccc21"
  unit-tag: "s"
  RP-LC retention time: 622

1. O=C(NCc1csc(C2CCN(C(=O)c3cc(F)ccc3F)CC2)n1)C1CC1
2. CCOCCCNS(=O)(=O)c1cc(-c2nc(C)c(C)s2)sc1C
Problem: // compare measured RP-LC retention time between 1 and 2 ; output the lower one Your answer should be the label of the entry you select.
Result: 1

----------
- experiment-description: gradient 5% acetonitrile 3 min, to 50% in 2 min, to 85% in 15 min, held 3 min, 100 µL/min
- condition-parameters: column: Zorbax Extend-C18 2.1 x 50 mm; eluents: water / acetonitrile, 0.1% formic acid
endpoint: RP-LC retention time (s)

- compound-structure-string: "CCc1nnc(-c2ccc3ccn(CC(=O)NCCc4ccc(OC)c(OC)c4)c3c2)o1"
  endpoint: "RP-LC retention time"
  obs-value: 760
- compound-structure-string: "Cc1cc(C)cc(-n2c(CN3CCN(C(=O)Nc4ccc5c(c4)OCO5)CC3)nc3cccnc32)c1"
  endpoint: "RP-LC retention time"
  obs-value: 676
- compound-structure-string: "Cn1c(=O)c2nc(SCCC(=O)Nc3ccc(Br)cc3)n(C)c2n(C)c1=O"
  endpoint: "RP-LC retention time"
  obs-value: 757
- compound-structure-string: "CCc1noc(NC(C)=O)c1-c1ccc(C)c(S(=O)(=O)Nc2ccc(F)cc2Cl)c1"
  endpoint: "RP-LC retention time"
  obs-value: 872
- compound-structure-string: "CCc1nnc(NC(=O)CSc2nccn2-c2ccc(F)cc2)s1"
  endpoint: "RP-LC retention time"
  obs-value: 653

----------
- experiment-description: gradient 5% acetonitrile 3 min, to 50% in 2 min, to 85% in 15 min, held 3 min, 100 µL/min
- condition-parameters: column: Zorbax Extend-C18 2.1 x 50 mm; eluents: water / acetonitrile, 0.1% formic acid
endpoint: RP-LC retention time (s)

- compound: "CCCn1cc(C(=O)NCc2cccs2)c2cccnc21"
  RP-LC retention time [s]: 799
- compound: "COc1ccc(NC(=O)Cn2c(=O)n(-c3ccccc3)c(=O)c3c2cc(C)n3C)c(OC)c1"
  RP-LC retention time [s]: 791
- compound: "CCCSCCCNC(=O)Cn1cnc2nc3c(cc2c1=O)CC(C)CC3 (configuration not stated)"
  RP-LC retention time [s]: 778
- compound: "O=c1ccc(S(=O)(=O)N2CCOCC2)cn1Cc1cc(F)cc(F)c1"
  RP-LC retention time [s]: 791
- compound: "O=C(C1CCN(S(=O)(=O)c2cc(-c3noc(C4CC4)n3)cs2)CC1)N1CCOCC1"
  RP-LC retention time [s]: 793
- compound: "O=C(C1CC1)N1CCc2sc(S(=O)(=O)NCc3ccccc3F)cc2C1"
  RP-LC retention time [s]: 815
- compound: "Cc1ccc(CNC(=O)C2CCN(C(=O)c3ncn4c3COC(c3ccccc3)C4)CC2)cc1 (configuration not stated)"
  RP-LC retention time [s]: 782

----------
- experiment-description: gradient 5% acetonitrile 3 min, to 50% in 2 min, to 85% in 15 min, held 3 min, 100 µL/min
- condition-parameters: column: Zorbax Extend-C18 2.1 x 50 mm; eluents: water / acetonitrile, 0.1% formic acid
endpoint: RP-LC retention time (s)

- compound: "Cc1sc(NC(=O)c2ccc(Br)cc2)nc1-c1ccc2c(c1)NC(=O)CO2"
  unit-tag: "s"
  RP-LC retention time: 972
- compound: "CCc1nc2cc(-c3noc(-c4cc5ccccc5oc4=O)n3)ccc2o1"
  unit-tag: "s"
  RP-LC retention time: 1010
- compound: "CCN1c2cc(C(=O)NCCC3=CCCCC3)ccc2C(=O)N2CCCCC21 (stereo unspecified)"
  unit-tag: "s"
  RP-LC retention time: 959
- compound: "Cc1ccc(-c2ccc(-n3nc(C)c(S(=O)(=O)NCC(C)C)c3C)nn2)cc1"
  unit-tag: "s"
  RP-LC retention time: 1160
- compound: "CC(C)CCNC(=O)C1CCCN(c2nc3ccsc3c(=O)n2-c2ccc(F)cc2)C1 (stereo unspecified)"
  unit-tag: "s"
  RP-LC retention time: 884
- compound: "CCOc1ccccc1C(=O)Nc1cccn2c(C3CCC3)nnc12"
  unit-tag: "s"
  RP-LC retention time: 953

----------
- experiment-description: gradient 5% acetonitrile 3 min, to 50% in 2 min, to 85% in 15 min, held 3 min, 100 µL/min
- condition-parameters: column: Zorbax Extend-C18 2.1 x 50 mm; eluents: water / acetonitrile, 0.1% formic acid
endpoint: RP-LC retention time (s)

- molecule: "Cc1ccc(Nc2nc(-c3cccnc3)nc3ccccc23)cc1"
  RP-LC retention time / s: 742
- molecule: "CC1CCN(C(=O)C2CCN(c3nc4ccc(-c5cccnc5)nc4s3)CC2)CC1"
  RP-LC retention time / s: 630
- molecule: "Cc1cccc(NC(=O)C2C(=O)N(C)C3(C)CC2c2ccccc2O3)c1 (centres undefined)"
  RP-LC retention time / s: 995
- molecule: "CCc1ccccc1NC(=O)C1CC(=O)N(c2ccc3oc(C)nc3c2)C1 (centres undefined)"
  RP-LC retention time / s: 723
